Source listed as PubChem BioAssay (NCI).

- System: OVCAR-4 ovarian
- ASSAY_PROTOCOL: NCI tumour cell line growth inhibition, 48 h
Could you please report measured TGI for the items listed next?

*Q* Request: TGI, test system OVCAR-4 ovarian, entry CC(C)(C)C(=O)C(N)C(=O)C(C)(C)C
*A* > 100 µM

*Q* Request: TGI, test system OVCAR-4 ovarian, entry Cc1ncc([N+](=O)[O-])n1CCOc1ccc(C(=O)/C=C/c2ccc(C(F)(F)F)cc2)cc1
*A* 14.6 µM

*Q* Request: TGI, test system OVCAR-4 ovarian, entry CCOC(=O)c1cnc2c(ccc3ncccc32)c1OCC
*A* > 100 µM

*Q* Request: TGI, test system OVCAR-4 ovarian, entry CN(C)CCCNC(=O)N/N=C/c1ccccn1
*A* > 10 µM

*Q* Request: TGI, test system OVCAR-4 ovarian, entry CCCC/C=C1/CCC(CN(C)C)C1=O (centres undefined)
*A* 8.27 µM

*Q* Request: TGI, test system OVCAR-4 ovarian, entry CSC1=C(C)C(/C=N/Nc2ccc([N+](=O)[O-])cc2)=C(C)N(c2ccccc2)S1(=O)=O
*A* > 100 µM

*Q* Request: TGI, test system OVCAR-4 ovarian, entry CN(Cc1cnc2nc(N)nc(N)c2n1)c1c(Cl)cc(C(=O)NC(CCC(=O)O)C(=O)O)cc1Br (centres undefined)
*A* > 100 µM

*Q* Request: TGI, test system OVCAR-4 ovarian, entry CCCCCCC1CCCCN1C(c1ccccc1)C(O)c1ccccc1 (centres undefined)
*A* 21.7 µM

*Q* Request: TGI, test system OVCAR-4 ovarian, entry COC(=O)c1sc(=S)c2sc(C(=O)OC)c(C(=O)OC)c2c1C(=O)OC
*A* > 100 µM
